Test system: LAETG (Abz-LAETGK(Dnp)-CONH2)
Assay: In vitro sortase kinetics HPLC assay, LAETG substrate
Format: biochemical
Details: Example 5 variants; substrate 2A (LAETG); read-out: Avg KM
Method: See below for details on sortase expression and purification, and on the synthesis of Abz-LPETGK(Dnp)-CONH2 (SEQ ID NO: 19). […] Reactions were initiated with the addition of enzyme and incubated at 22.5° C. for 3 to 20 minutes before quenching with 0.5 volumes of 1 M HCl. […] Percent conversion was also calculated by using the ratio of the integrated areas of the GK(Dnp)-CONH2 and Abz-LPETGK(Dnp)-CONH2 peptide Abs355 peaks were compared directly (Example 5). […]
Task for the reader: assign each of the following molecules its reported Km.
Write down the numeric answer in mM and omit the unit.

Request: What measured Km goes with eSrtA(2A-4): 5mut + A104H K162R V168I I182V (protein) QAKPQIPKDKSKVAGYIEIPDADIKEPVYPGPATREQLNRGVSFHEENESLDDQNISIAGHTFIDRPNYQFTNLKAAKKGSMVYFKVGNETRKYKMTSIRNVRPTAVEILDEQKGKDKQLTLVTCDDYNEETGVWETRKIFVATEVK ?
Response: 3.72

Request: // next record eSrtA(2A-3.5) (protein) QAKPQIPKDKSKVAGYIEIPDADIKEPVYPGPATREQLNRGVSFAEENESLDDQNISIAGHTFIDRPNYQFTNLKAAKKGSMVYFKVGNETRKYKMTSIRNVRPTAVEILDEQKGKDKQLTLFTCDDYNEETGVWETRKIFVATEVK
Response: 6.37

Request: Now this one: eSrtA(2A-6): round 6 consensus variant targeting LAETG; kinetics close to 2A.6A (protein) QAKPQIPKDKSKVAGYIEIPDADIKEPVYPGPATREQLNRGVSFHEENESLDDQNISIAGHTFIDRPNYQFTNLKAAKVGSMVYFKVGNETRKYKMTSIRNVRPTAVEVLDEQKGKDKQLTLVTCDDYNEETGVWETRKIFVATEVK
Response: 0.665

Request: What about this molecule? eSrtA(2A-3): round 3 LAETG clone: eSrtA + K84R F122S D124G K134R K145E K162R V168I K177R I182F (protein) QAKPQIPKDKSKVAGYIEIPDADIREPVYPGPATREQLNRGVSFAEENESLDDQNISIAGHTSIGRPNYQFTNLRAAKKGSMVYFEVGNETRKYKMTSIRNVRPTAVEILDEQKGKDRQLTLFTCDDYNEETGVWETRKIFVATEVK
Response: 1.62
